- target: CX3CR1 (Homo sapiens, UniProt P49238)
- Sequence (P49238 1-355): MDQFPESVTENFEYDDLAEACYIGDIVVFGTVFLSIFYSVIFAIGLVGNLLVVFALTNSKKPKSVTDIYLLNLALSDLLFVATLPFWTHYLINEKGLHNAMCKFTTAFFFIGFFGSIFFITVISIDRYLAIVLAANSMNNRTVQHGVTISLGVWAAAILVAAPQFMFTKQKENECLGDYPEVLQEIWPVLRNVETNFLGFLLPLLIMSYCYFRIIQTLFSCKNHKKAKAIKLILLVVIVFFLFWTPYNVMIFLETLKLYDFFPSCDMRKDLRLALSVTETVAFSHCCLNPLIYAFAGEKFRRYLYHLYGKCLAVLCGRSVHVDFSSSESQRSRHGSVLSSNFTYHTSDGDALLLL
- procedure.text: [35S]GTPγS accumulation assay, CHO-hCX3CR1 membranes
- condition.notes: response from 2 nM CX3CL1 (EC80), n > 24; read-out: IC50, inhibition of CX3CL1-induced [35S]GTPγS accumulation

cpd.smiles: CC(C)C[C@H](CO)Nc1nc(S[C@@H](C)c2ccccc2)nc2nc(N)sc12
IC50: 340 nM
